The measured values listed here are drawn from patent US20230220057A1.

target: recombinantly produced human-NGF (human, UniProt P01138 122-241, limits assumed); test: ELISA, human NGF coated, IgG titrated
Sequence (P01138 122-241 limits assumed): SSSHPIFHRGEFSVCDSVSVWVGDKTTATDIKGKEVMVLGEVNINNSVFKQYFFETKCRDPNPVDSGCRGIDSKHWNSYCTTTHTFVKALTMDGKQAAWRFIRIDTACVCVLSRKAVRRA
Metric: EC50 (ng/mL)
Write the number in ng/mL without appending the unit.

The following binders have reported results that may help.
binder="Ab17 (antibody, human IgG1, V domains shown) VH: EVQLVQSGAEVKKPGATVKISCKVSGYSFITYWISWVQQAPGKGLEWMGAIDPSDSDARYSPSFQGRVTITADTSTDTAYMELSSLRSEDTAVYYCAKSDPGYSGYSLLYGFDSWGQGTLVTVSS VL: DIVMTQSPLSLPVTLGQPASISCRSSQSLVQRNGNTYLSWFQQRPGQSPRLLIYQVSNRYSGVPDRFSGSGSGTDFTLKISRVEAEDVGVYYCGQGAHLPLTFGQGTKVEIK" result_number=0.016
binder="Ab22 (antibody, human IgG1, V domains shown) VH: EVQLVQSGAEVKKPGATVKISCKVSGYSFITYWISWVQQAPGKGLEWMGAIDPSDSDARYSPSFQGRVTITADKSTDTAYMELSSLRSEDTAVYYCAKSDPGYSGYSLLYGFDSWGQGTLVTVSS VL: DIVMTQTPLSSPVTLGQPASISCRSSQSLVQRNGNTYLSWYQQRPGQPPRLLIYQVSNRYSGVPDRFSGSGAGTDFTLKISRVEAEDVGVYYCGQGAHLPLTFGQGTKVEIK" result_number=0.0382

Which EC50 is reported for this binder? Ab18 (antibody, human IgG1, V domains shown) VH: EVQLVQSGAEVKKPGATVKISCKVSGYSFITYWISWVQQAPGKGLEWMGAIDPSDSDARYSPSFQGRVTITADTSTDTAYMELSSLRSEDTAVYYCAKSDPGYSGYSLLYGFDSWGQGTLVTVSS VL: DIVMTQSPLSLPVTLGQPASISCRSSQSLVQRNGNTYLSWYQQRPGQSPRLLIYQVSNRYSGVPDRFSGSGSGTDFTLKISRVEAEDVGVYYCGQGAHLPLTFGQGTKVEIK
0.0271

I'd like to know its EC50. The binder in question is Ab2 (antibody, human IgG1, V domains shown) VH: EVQLVQSGAEVKKPGATVKISCKVSGYTFITYWISWVQQAPGKGLEWMGAIDPSDSDARYSPSFQGRVTITADTSTDTAYMELSSLRSEDTAVYYCAKSDPGYSGYSLLYGFDSWGQGTLVTVSS VL: DIVMTQTPLSSPVTLGQPASISCRSSQSLVQRNGNTYLSWYQQRPGQPPRLLIYQVSNRYSGVPDRFSGSGAGTDFTLKISRVEAEDVGVYYCGQGAHLPLTFGQGTKVEIK
0.0197

Which EC50 value belongs to Ab48 (antibody, human IgG1, V domains shown) VH: EVQLVQSGAEVKKPGESLKISCKGSGYSFITYWISWVRQMPGKGLEWMGAIDPSDSDARYSPSFQGQVTISADKSISTAYLQWSSLKASDTAMYYCAKSDPGYSGYSLLYGFDSWGQGTLVTVSS VL: DIVMTQSPLSLPVTLGQPASISCRSSQSLVQRNGNTYLSWYQQRPGQSPRLLIYQVSNRYSGVPDRFSGSGSGTDFTLKISRVEAEDVGVYYCGQGAHLPLTFGQGTKVEIK ?
0.0156
